method-summary: RP, Waters ACQUITY UPLC BEH C18, 100 × 1 mm, 1.7 µm, 50 °C, 0.3 mL/min, estimated dead time 0.17 min; A: water + 0.1% formic acid + 20 mM ammonium formate; B: methanol + 0.1% formic acid + 20 mM ammonium formate; gradient (min/%B) 0/0 15/100 21/100 22/0 30/0
conditions-used: stereoisomer not certain
quantity-kind: LC retention time (min)

Example entries and their recorded answers appear below.
N#Cc1c(Cl)c(Cl)c(O)c(C(N)=O)c1Cl    10
O=C(O)C(F)(F)C(F)(F)C(F)(F)F    7.57
COc1ccccc1Oc1c(NS(=O)(=O)c2ccc(C(C)(C)C)cc2)nc(-c2ncccn2)nc1OCCO    14.9
CC(Oc1ccc(Oc2ccc(Cl)cc2Cl)cc1)C(=O)O (centres undefined)    14.3
CCC(=C(c1ccccc1)c1ccc(OCCN(C)C)cc1)c1ccccc1    15.8

1. CN(C)c1nc2c(ncn2C2OC(CO)C(O)C2O)c(=O)[nH]1 (centres undefined)
2. CC(C)C(=O)Nc1ccc([N+](=O)[O-])c(C(F)(F)F)c1 [Flutamide]
3. COc1ccc2c(c1OC)C(=O)OC2C1c2c(cc3c(c2OC)OCO3)CCN1C (centres undefined)
# desc sort on LC retention time across 3 molecules I would appreciate it if you listed the labels in the requested order. 2, 3, 1

A. O=c1ccn(C2OC(CO)C(O)C2(F)F)c(=O)[nH]1 (centres undefined)
B. COc1ncnc(NS(=O)(=O)c2ccc(N)cc2)c1OC
Looking only at measured LC retention time, which entry is lower, A or B ? I would appreciate it if you answered with the label of your choice. A

P. CC(=O)N(C)c1ccc(N)cc1
Q. CN(CC=CC#CC(C)(C)C)Cc1cccc2ccccc12
Hi team, can someone confirm which has the larger LC retention time: P or Q ? Thanks. Identify your selection by its label. Q
(Q: 14 min, P: 5.17 min)

* * *

method-summary: RP, Waters ACQUITY UPLC BEH C18, 100 × 1 mm, 1.7 µm, 50 °C, 0.3 mL/min, estimated dead time 0.17 min; A: water + 0.1% formic acid + 20 mM ammonium formate; B: methanol + 0.1% formic acid + 20 mM ammonium formate; gradient (min/%B) 0/0 15/100 21/100 22/0 30/0
conditions-used: stereoisomer not certain
quantity-kind: LC retention time (min)

Worked examples, 5 molecules total:
COCCOCCOCCO    6.67
COc1ccc2c(c1O)-c1c(OC)c(OC)cc3c1C(C2)N(C)CC3 (single isomer, unassigned; (+)) [(+)-Isocorydin]    8.65
NC(=O)N1c2ccccc2CC(O)c2ccccc21 (stereo not drawn) [10,11-Dihydro-10-hydroxycarbamazepine]    10.7
NC(=O)N1c2ccccc2C=Cc2cc(O)ccc21 [2-Hydroxycarbamazepine]    10.7
O=[N+]([O-])c1ccc(C2OC2c2ccc([N+](=O)[O-])cc2S(=O)(=O)O)c(S(=O)(=O)O)c1 (stereo not drawn)    11.5

A. Clc1ccccc1C(c1ccccc1)(c1ccccc1)n1ccnc1
B. NCCc1ccc(O)c(O)c1
Response body: label of entry with the larger LC retention time; valid values A , B . Refer to your chosen item by its label in the answer. A

* * *

method-summary: RP, Waters ACQUITY UPLC BEH C18, 100 × 1 mm, 1.7 µm, 50 °C, 0.3 mL/min, estimated dead time 0.17 min; A: water + 0.1% formic acid + 20 mM ammonium formate; B: methanol + 0.1% formic acid + 20 mM ammonium formate; gradient (min/%B) 0/0 15/100 21/100 22/0 30/0
conditions-used: stereoisomer not certain
quantity-kind: LC retention time (min)

A. CC=C(C)C(=O)OC1CC[N+]2([O-])CC=C(COC(=O)C(O)(C(C)OC)C(C)(C)O)C12 (centres undefined) [Lasiocarpine N-oxide]
B. CC[N+]1([O-])CCCC1CNC(=O)c1cc(S(N)(=O)=O)ccc1OC (centres undefined) [Sulpiride N-Oxide]
C. CNCC(O)c1cccc(O)c1 (centres undefined)
List the items above again, this time ordered by increasing LC retention time. Answer with the labels in sequence, matching the requested order. C, B, A
(C: 2.01 min, B: 6.62 min, A: 11 min)

* * *

method-summary: RP, Waters ACQUITY UPLC BEH C18, 100 × 1 mm, 1.7 µm, 50 °C, 0.3 mL/min, estimated dead time 0.17 min; A: water + 10 mM ammonium bicarbonate; B: 10% water + 90% methanol + 10 mM ammonium bicarbonate; gradient (min/%B) 0/0 15/100 21/100 22/0 30/0
conditions-used: stereoisomer not certain
Counter-ions that a name gives are not always drawn.
quantity-kind: LC retention time (min)

Known results for compounds:
CCCCCCCCCCOS(=O)(=O)O [Decyl sulfate]    15.1
NS(=O)(=O)c1cc(C2(O)NC(=O)c3ccccc32)ccc1Cl (centres undefined) [Chlorthalidon]    9.67
COc1ccccc1OCC(O)COC(N)=O (centres undefined) [Methocarbamol]    9.71

a. COc1nc(C)nc(NC(=O)NS(=O)(=O)c2ccccc2OCCCl)n1 [Triasulfuron]
b. CCC(=C(c1ccc(O)cc1)c1ccc(OCCN(C)C)cc1)c1ccccc1 [4-Hydroxytamoxifen]
c. Nc1ccn(C2OC(CO)C(O)C2(F)F)c(=O)n1 (centres undefined) [Gemcitabine]
Hey, quick one: sort these by LC retention time, low to high? Write out the labels following the order that was asked for. c, a, b

* * *

method-summary: RP, Waters ACQUITY UPLC BEH C18, 100 × 1 mm, 1.7 µm, 50 °C, 0.3 mL/min, estimated dead time 0.17 min; A: water + 10 mM ammonium bicarbonate; B: 10% water + 90% methanol + 10 mM ammonium bicarbonate; gradient (min/%B) 0/0 15/100 21/100 22/0 30/0
conditions-used: stereoisomer not certain
quantity-kind: LC retention time (min)

COc1cc([N+](=O)[O-])ccc1O [4-Nitroguaiacol]    4.61
CNC(=O)ON=C(C)C(C)S(C)(=O)=O (configuration not stated) [Butoxycarboxim]    9.41
CCCCCCCCCCSCCOCCO [2(2(decylsulfanyl)ethoxy)ethanol]    18.1
COc1cc2c(cc1OC)C13CCN4CC5=CCOC6CC(=O)N2C1C6C5CC43 (configuration not stated) [Brucine]    12.1

A. CC=C1CC2(CO)OC2(C)C(=O)OCC2=CCN3CCC(OC1=O)C23 (configuration not stated) [Erucifoline]
B. CC(=O)N(CC(O)CO)c1c(I)c(C(=O)NCC(O)CO)c(I)c(C(=O)NCC(O)CO)c1I (configuration not stated) [Iohexol]
C. CCOC1C(OC)C(C)OC(OC2CC3CCC4C5CC(=O)OC(CC)CCCC(OC6CCC(N(C)C)C(C)O6)C(C)C(=O)C5=CC4C3C2)C1OC (configuration not stated) [Spinetoram]
Put the items in order so that reported LC retention time rises from first to last. Put the labels in the requested order and list them out. B, A, C
(B: 5.51 min, A: 10.2 min, C: 19.2 min)

* * *

method-summary: RP, Waters ACQUITY UPLC BEH C18, 100 × 1 mm, 1.7 µm, 50 °C, 0.3 mL/min, estimated dead time 0.17 min; A: water + 0.1% formic acid + 20 mM ammonium formate; B: methanol + 0.1% formic acid + 20 mM ammonium formate; gradient (min/%B) 0/0 15/100 21/100 22/0 30/0
conditions-used: stereoisomer not certain
quantity-kind: LC retention time (min)

O=C(NCc1ncc(C(F)(F)F)cc1Cl)c1c(Cl)cccc1Cl [Fluopicolide]    14.4
CCCCCCCCCCCCCCCC(=O)OCC(O)CO (stereo not drawn) [Glyceryl-1-monopalmitate]    18.6
CN1CCCC(n2nc(Cc3ccc(Cl)cc3)c3ccccc3c2=O)CC1 (stereo not drawn)    12.9
O=C(O)C(F)(F)C(F)(F)C(F)(F)C(F)(F)C(F)(F)C(F)(F)C(F)(F)F    14.7
CCCCCCCCCCCC(=O)N(CCO)CCO [Lauryl diethanolamide]    16.4
CC(C)CC(C)OC(=O)c1ccccc1C(=O)OC(C)CC(C)C (stereo not drawn) [Bis(4-methyl-2-pentanyl)phthalate]    18.2

1. CC(CCc1ccccc1)NCC(O)c1ccc(O)c(C(N)=O)c1 (stereo not drawn)
2. CCCCCCCOC(=O)c1ccccc1C(=O)OCCCCCCC [Di-n-heptylphthalate]
Return label of the item with the larger LC retention time. Candidates: 1 , 2 . Response format: the label of the selected entry. 2

* * *

method-summary: RP, Waters ACQUITY UPLC BEH C18, 100 × 1 mm, 1.7 µm, 50 °C, 0.3 mL/min, estimated dead time 0.17 min; A: water + 0.1% formic acid + 20 mM ammonium formate; B: methanol + 0.1% formic acid + 20 mM ammonium formate; gradient (min/%B) 0/0 15/100 21/100 22/0 30/0
conditions-used: stereoisomer not certain
quantity-kind: LC retention time (min)

CN(C)CCC=C1c2ccccc2COc2ccc(CC(=O)O)cc21    11.5
CCCCC(CC)COC(=O)CC(C(=O)OCC(CC)CCCC)S(=O)(=O)O (stereo not given) [Dioctylsulfosuccinate]    17
CCC(C(N)=O)N1CCCC1=O (stereo not given)    6.9

a. CCNc1ccc2c(C)cc(=O)oc2c1 [7-(Ethylamino)-4-methylcoumarin]
b. CN(C)CCOC(C)(c1ccccc1)c1ccccn1 (stereo not given)
Select the item with the higher value of LC retention time from the options a and b listed. Selection: enter the item's label. a

Hey, just so you know, these numbers are from the RepoRT retention time repository (doi:10.1021/acs.analchem.1c00972).
